Assay: Assay Example 7: pharmacokinetics in mice
Format: in vivo
Conditions: mouse, oral; female BALB/c mice, plasma; dose not given
Protocol: Purpose of the assay: this assay aims to investigate in vivo plasma pharmacokinetics of the example compounds disclosed herein and the reference compound in female BALB/c mice after the single intravenous injection and intragastric administration thereof. […] Sample collection: at each time point, a 0.03 mL blood sample was collected from the saphenous vein of the test animal by puncture, and the actual blood collection time was recorded. […]
parameterMeasured: half-life

| molecule | parameterMeasured | measured |
| --- | --- | --- |
| C=CC(=O)N1CCC(Nc2cc3c(Nc4ccc(F)c(Cl)c4)ncnc3cc2OC)CC1 [Control compound 2] | half-life | 1.5 h |
| C=CC(=O)N1CCC(Oc2cc3c(Nc4ccc(Cl)c(Cl)c4F)ncnc3cc2OC)CC1 [Poziotinib, reference compound] | half-life | 2.3 h |
| C=CC(=O)N1[C@@H]2CC[C@H]1C[C@H](Nc1cc3c(Nc4ccc(Cl)c(Cl)c4F)ncnc3cc1OC)C2 | half-life | 3.2 h |

====

These records show IC50 for UniProt Q15303.
Sequence (Q15303 26-1308): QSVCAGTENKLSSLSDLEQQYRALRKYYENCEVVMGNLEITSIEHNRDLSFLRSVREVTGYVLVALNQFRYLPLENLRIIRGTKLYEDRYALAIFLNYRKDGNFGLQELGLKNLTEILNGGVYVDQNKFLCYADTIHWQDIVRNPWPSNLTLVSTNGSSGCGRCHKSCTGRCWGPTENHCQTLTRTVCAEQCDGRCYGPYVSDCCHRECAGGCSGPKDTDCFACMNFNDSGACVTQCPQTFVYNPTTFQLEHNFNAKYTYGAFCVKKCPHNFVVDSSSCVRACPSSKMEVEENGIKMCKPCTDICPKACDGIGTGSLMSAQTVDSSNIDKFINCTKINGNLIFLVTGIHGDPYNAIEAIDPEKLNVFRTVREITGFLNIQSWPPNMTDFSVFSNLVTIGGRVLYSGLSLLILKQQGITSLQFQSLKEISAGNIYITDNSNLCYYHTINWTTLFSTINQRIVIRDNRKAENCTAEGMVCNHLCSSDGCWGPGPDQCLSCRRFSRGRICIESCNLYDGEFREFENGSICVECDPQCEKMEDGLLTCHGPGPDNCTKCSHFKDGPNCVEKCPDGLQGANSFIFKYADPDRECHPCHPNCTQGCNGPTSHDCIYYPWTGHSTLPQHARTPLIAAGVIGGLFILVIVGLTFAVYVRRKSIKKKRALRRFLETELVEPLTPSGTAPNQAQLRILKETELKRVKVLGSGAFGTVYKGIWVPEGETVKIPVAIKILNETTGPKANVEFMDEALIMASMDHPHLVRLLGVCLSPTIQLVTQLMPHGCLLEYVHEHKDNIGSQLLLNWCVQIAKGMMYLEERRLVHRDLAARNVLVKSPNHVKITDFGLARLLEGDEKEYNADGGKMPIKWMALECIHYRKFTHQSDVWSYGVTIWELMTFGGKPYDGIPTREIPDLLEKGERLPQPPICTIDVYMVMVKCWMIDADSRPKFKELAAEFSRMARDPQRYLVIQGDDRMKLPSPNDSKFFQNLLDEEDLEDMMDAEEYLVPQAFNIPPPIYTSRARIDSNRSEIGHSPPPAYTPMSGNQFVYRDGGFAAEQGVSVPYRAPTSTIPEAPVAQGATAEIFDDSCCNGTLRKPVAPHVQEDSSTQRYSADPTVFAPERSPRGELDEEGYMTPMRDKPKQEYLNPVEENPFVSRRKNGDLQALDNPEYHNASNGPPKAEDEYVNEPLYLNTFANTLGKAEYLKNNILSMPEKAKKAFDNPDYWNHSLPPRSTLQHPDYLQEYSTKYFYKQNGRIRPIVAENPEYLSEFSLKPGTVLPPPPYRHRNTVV

| compoundSmiles | IC50, nM |
| --- | --- |
| C=CC(=O)N1[C@@H]2CC[C@H]1C[C@H](Oc1cc3c(Nc4ccc(Cl)c(Cl)c4F)ncnc3cc1OCC(=O)NC)C2 | 2 |
| C=CC(=O)N1[C@@H]2CC[C@H]1C[C@H](Nc1cc3c(Nc4ccc(F)c(Cl)c4F)ncnc3cc1OC)C2 | 4 |
| C=CC(=O)N1C[C@H]2C[C@@H](C1)[C@H]2Oc1cc2c(Nc3ccc(Cl)c(Cl)c3F)ncnc2cc1OCCO | 7 |
| C=CC(=O)N1C[C@H]2C[C@@H](C1)[C@H]2Oc1cc2c(Nc3ccc(F)c(Cl)c3)ncnc2cc1OC | 17 |
| C=CC(=O)N1[C@@H]2CC[C@H]1C[C@H](Oc1cc3c(Nc4ccc(Cl)c(Cl)c4F)ncnc3cc1OCCC(C)(C)O)C2 | 10 |
| C=CC(=O)N1[C@@H]2CC[C@H]1C[C@H](Oc1cc3c(Nc4ccc(Cl)c(Cl)c4F)ncnc3cc1O[C@@H]1CCOC1)C2 | 3 |
| C=CC(=O)N1[C@@H]2CC[C@H]1C[C@H](Oc1cc3c(Nc4ccc(Cl)c(Cl)c4F)ncnc3cc1OCC)C2 | 3 |
